# tested target: Human neutrophil elastase (Homo sapiens (Human))
# test: Human Neutrophil Elastase Assay
# reported conditions: substrate MeOSuc-Ala-Ala-Pro-Val-AMC 250 μM, fluorescence, pH 7.5
Hi there, I'd appreciate the recorded pIC50 for every entry that follows.
Answers are plain numbers, as −log10 of the molar value.

>>> val("CCn1cc(C(=O)NCc2ccc(S(=O)(CC)=NC#N)cc2)c(=O)c(-c2cccc(C(F)(F)F)c2)c1C (stereo not shown) [Example 10]")
8.92
>>> val("Cc1c(-c2ccnc(C(F)(F)F)c2)c(=O)c(C(=O)NCc2ccc(S(C)(=O)=NC#N)cc2)cn1-c1ccccc1 (single isomer, unassigned)")
7.87
>>> val("CCn1cc(C(=O)NCc2ccc(S(C)(=O)=NC#N)cc2)c(=O)c(-c2cccc(C(F)(F)F)c2)c1C (racemic) [Example 4]")
8.52
>>> val("Cc1c(-c2cccc(C(F)F)c2)c(=O)c(C(=O)NCc2ccc(S(C)(=O)=NC#N)cc2)cn1C(C)C (stereo not shown) [Example 1]")
8.89
>>> val("Cc1c(-c2cccc(C(F)F)c2)c(=O)c(C(=O)NCc2ccc(S(C)(=O)=NC#N)cc2)cn1C1CCC1 (stereo not shown)")
8.62

Items follow; give pIC50 for each.
1. Cc1ccncc1-n1cc(C(=O)NCc2ccc(S(C)(=O)=NC#N)cc2)c(=O)c(-c2cccc(C(F)(F)F)c2)c1C (stereo not shown)
2. Cc1c(-c2ccnc(C(F)(F)F)c2)c(=O)c(C(=O)NCc2ccc(S(C)(=O)=NC#N)cc2)cn1C(C)C (racemic) [Example 3]
3. CN=S(C)(=O)c1ccc(CNC(=O)c2cn(C(C)C)c(C)c(-c3cccc(C(F)(F)F)c3)c2=O)cc1 (stereo not shown)
4. CCS(=O)(=NC#N)c1ccc(CNC(=O)c2cn(C3CC3)c(C)c(-c3cccc(C(F)(F)F)c3)c2=O)cc1 (single isomer, unassigned) [Example 21B]
5. Cc1c(-c2cccc(C(F)(F)F)c2)c(=O)c(C(=O)NCc2ccc(S(C)(=O)=NC#N)cc2)cn1-c1ccccc1 (single isomer, unassigned)

[8.77, 8.33, 7.31, 8.68, 8.26]

Report pIC50 for every entry below.
1. Cc1c(-c2ccc(F)c(C(F)F)c2)c(=O)c(C(=O)NCc2ccc(S(C)(=O)=NC#N)cc2)cn1C(C)C (single isomer, unassigned)
2. Cc1c(-c2cccc(C(F)F)c2)c(=O)c(C(=O)NCc2ccc(S(C)(=O)=NC#N)cc2)cn1-c1ccccc1 (single isomer, unassigned)

[8.33, 8.43]

Please report the recorded pIC50 for Cc1c(-c2cccc(C(F)(F)F)c2)c(=O)c(C(=O)NCc2ccc(S(C)(=O)=NC#N)c[n+]2[O-])cn1C(C)C (stereo not shown) .
8.57

* * *

Assign IC50 to each entry below.
# tested target: Human neutrophil elastase (Homo sapiens (Human), UniProt P08246)
# Sequence (P08246 30-247): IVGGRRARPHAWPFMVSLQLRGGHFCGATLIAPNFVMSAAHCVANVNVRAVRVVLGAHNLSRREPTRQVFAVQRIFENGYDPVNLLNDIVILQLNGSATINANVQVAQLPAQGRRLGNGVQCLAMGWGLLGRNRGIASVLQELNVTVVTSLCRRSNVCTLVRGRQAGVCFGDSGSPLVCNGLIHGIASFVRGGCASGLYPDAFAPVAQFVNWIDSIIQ
# test: Human Neutrophil Elastase Assay
# reported conditions: substrate MeOSuc-Ala-Ala-Pro-Val-AMC 250 μM, fluorescence, pH 7.5

Answered cases to consult:
>>> val("Cc1c(-c2ccnc(C(F)(F)F)c2)c(=O)c(C(=O)NCc2ccc(S(C)(=O)=NC#N)cc2)cn1-c1ccccn1 (single isomer, unassigned)")
"14.9 nM"
>>> val("Cc1c(-c2cccc(C(F)(F)F)c2)c(=O)c(C(=O)NCc2ccc(S(=O)(=NC#N)C3CC3)cc2)cn1C(C)C (stereo not drawn)")
"1.4 nM"
>>> val("Cc1noc(-n2cc(C(=O)NCc3ccc(S(C)(=O)=NC#N)cc3)c(=O)c(-c3cccc(C(F)(F)F)c3)c2C)c1C (stereo not drawn)")
"7.3 nM"
>>> val("CCn1cc(C(=O)NCc2ccc(S(=O)(CC)=NC#N)cc2)c(=O)c(-c2cccc(C(F)(F)F)c2)c1C (single isomer, unassigned) [Example 10A]")
"2.7 nM"
>>> val("CCS(=O)(=NC#N)c1ccc(CNC(=O)c2cn(C(C)C)c(C)c(-c3cccc(C(F)F)c3)c2=O)cc1 (stereo not drawn)")
"< 1 nM"

Here is the next item to consider.
// IC50 lookup, key: CCS(=O)(=NC#N)c1ccc(CNC(=O)c2cn(-c3ccnn3C)c(C)c(-c3cccc(C(F)(F)F)c3)c2=O)cc1 (stereo not drawn)
1.5 nM
